System: PC3 cells
Assay: Cell Viability Assay (ATPlite 1step), PC3
Type: cell-based
Conditions: Homo sapiens, PC-3; PC3, 20 uM compound, 72 hours; read-out: Cell Viability % inhibition PC3 (20 uM Cpd)
Experimental endpoint: percent inhibition of cell viability at 20 µM

Cc1ncc(C(=O)Nc2ccc(-c3cccc(S(=O)(=O)C4CC4)c3)cn2)cn1 : 67.6%
Cc1ccc(C(=O)Nc2ccc(-c3cccc(C4CC4)c3)cn2)cn1 : 63.4%
Cc1ncc(C(=O)Nc2ncc(-c3cccc(NC4CC4)c3)cc2F)cn1 : 64.4%
O=C(Nc1ccc(-c2ccccc2)cn1)c1cncnc1 : 72.2%
Cc1ncc(C(=O)Nc2ncc(-c3ccsc3)cc2F)cn1 : 64.5%
O=C(Nc1ccc(-c2cccc(C3CC3)c2)cn1)c1cccnc1 : 67.5%

Okay, now this compound:
Record summary for "O=C(Nc1ccc(-c2cccc(C3COC3)c2)cn1)c1cncnc1" : reported percent inhibition of cell viability at 20 µM = 80.9%

* * *

What percent inhibition of cell viability at 20 µM was measured for each of the following?
System: PC3 cells
Test: Cell Viability Assay (ATPlite 1step), PC3
Type: cell-based
Conditions: Homo sapiens, PC-3; PC3, 20 uM compound, 72 hours; read-out: Cell Viability % inhibition PC3 (20 uM Cpd)
One number for each entry, in %.

Before answering, review these 2 worked examples.
Cc1ncc(C(=O)Nc2ccc(-c3cc(NC4CC4)cc(N4CCN(C)CC4)c3)c(C)n2)cn1 : 52.5
O=C(Nc1ccc(-c2ccccn2)cn1)c1cncnc1 : 48.2

# map each compound to its percent inhibition of cell viability at 20 µM
1. NCCNc1ncc(C(=O)Nc2ccc(-c3cccc(OC4CC4)c3)cn2)cn1
2. O=C(Nc1ncc(-c2ccccc2)cn1)c1cncnc1

[93.6, 69.2]

* * *

Test system: A2780 cells
Assay: Cell Viability Assay (ATPlite 1step), A2780
Assay type: cell-based
Conditions: Homo sapiens; A2780, 20 uM compound, 72 hours; read-out: Cell Viability % inhibition A2780 (20 uM Cpd)
Experimental endpoint: percent inhibition of cell viability at 20 µM (%)
Numbers only, in %.

Before answering, review these 8 worked examples.
O=C(Nc1ccc(-c2cccc(C3COC3)c2)cn1)c1cccnc1 [Compound 43] : 86.7
Cc1ncc(C(=O)Nc2ccc(-c3cccc(S(=O)(=O)C4CC4)c3)c(C)n2)cn1 [Compound 64] : 81.5
CC(C)(C)c1cccc(-c2ccc(NC(=O)c3cncnc3)nc2)c1 [Compound 46] : 71.8
Cc1ccc(C(=O)Nc2ccc(-c3cccc(C4CC4)c3)cn2)cn1 [Compound 25] : 81.1
O=C(Nc1ccc(C2CC2)cn1)c1cncnc1 [Compound 6] : 76.4
NCCNc1ncc(C(=O)Nc2ccc(-c3cccc(C4CC4)c3)cn2)cn1 [Compound 56] : 97.6
Cc1ncc(C(=O)Nc2ccc(-c3cc(NC4CC4)cc(N4CCN(C)CC4)c3)c(C)n2)cn1 [Compound 52] : 69.5
Cc1ncc(C(=O)Nc2ccc(-c3cccc(C4CC4)c3)cn2)cn1 [Compound 23] : 80.3

# map each compound to its percent inhibition of cell viability at 20 µM
1. Cc1ncc(C(=O)Nc2ncc(-c3cccc(OC4CC4)c3)cc2F)cn1 [Compound 66]
2. COc1ncc(C(=O)Nc2ccc(-c3cccc(OC4CC4)c3)cn2)cn1 [Compound 57]
3. Cc1ncc(C(=O)Nc2ccc(-c3cc(O)cc(C4CC4)c3)cn2)cn1 [Compound 65]
4. NCCNc1ncc(C(=O)Nc2ccc(-c3cccc(OC4CC4)c3)cn2)cn1 [Compound 58]

1: 88.4; 2: 89.8; 3: 89.8; 4: 91.1

# map each compound to its percent inhibition of cell viability at 20 µM
1. O=C(Nc1ccc(-c2cccc(C3CCC3)c2)cn1)c1cncnc1 [Compound 45]
2. Cc1ncc(C(=O)Nc2ncc(-c3cccc(C4CC4)c3)cc2F)cn1 [Compound 67]
3. O=C(Nc1ccc(-c2cccc(NC3CC3)c2)cn1)c1cncnc1 [Compound 30]
4. COc1cccc(-c2ccc(NC(=O)c3cncnc3)nc2)c1 [Compound 18]

[86.4, 87.9, 78.7, 91.5]
